biological target: Matrix metalloproteinase-26 (Homo sapiens); test: Inhibition of matrix metalloprotease-26 (MMP-26)
Sequence (Q9NRE1 whole entry): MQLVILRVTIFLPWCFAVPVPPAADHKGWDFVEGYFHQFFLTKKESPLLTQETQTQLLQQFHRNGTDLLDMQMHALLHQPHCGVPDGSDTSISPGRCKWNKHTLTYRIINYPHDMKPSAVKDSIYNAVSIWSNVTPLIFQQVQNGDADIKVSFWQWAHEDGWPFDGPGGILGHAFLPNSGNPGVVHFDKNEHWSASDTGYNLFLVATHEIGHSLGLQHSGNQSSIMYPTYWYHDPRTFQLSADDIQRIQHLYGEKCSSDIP
measuredAttribute: IC50 (nM)
Field: numeric (nM). Do not append units.

# example entries with known answers
Cc1ccc(S(=O)(=O)N2CCc3cc(O)ccc3C2C(=O)NO)cc1 (configuration not stated)	97
O=C(NO)C1c2ccc(O)cc2CCN1S(=O)(=O)c1cc(Cl)ccc1Cl (configuration not stated)	7900
O=C(NO)C1c2ccc(O)cc2CCN1S(=O)(=O)c1ccccc1 (configuration not stated)	858

Exercise: Entry O=C(NO)C1c2ccc(OCc3ccccc3)cc2CCN1S(=O)(=O)c1ccccc1 (configuration not stated) : reported IC50 = ?
Solution: 1450

Exercise: Entry Cc1ccc(S(=O)(=O)N2CCc3cc(OCc4ccccc4)ccc3C2C(=O)NO)cc1 (configuration not stated) : reported IC50 = ?
Solution: 2050

Exercise: Entry COc1ccc(S(=O)(=O)N2CCc3cc(OCc4ccccc4)ccc3C2C(=O)NO)cc1 (configuration not stated) : reported IC50 = ?
Solution: 744

Exercise: Entry COc1ccc(S(=O)(=O)N2CCc3cc(O)c(OC)cc3C2C(=O)NO)cc1 (configuration not stated) : reported IC50 = ?
Solution: 86

Exercise: Entry Nc1ccc(S(=O)(=O)N2CCc3cc(O)ccc3C2C(=O)NO)cc1 (configuration not stated) : reported IC50 = ?
Solution: 492
